Test system: Sk-Hep-1
test-method-notes: SRB cytotoxicity assay, Sk-Hep-1
Assay type: cell-based
cond: Homo sapiens, SK-HEP1; Sk-Hep-1, incubation 72 h
observable: IC50 (nM)
Enter your answer as a number in nM; do not include the unit.

# IC50 lookup, item CC[C@@]1(O)C(=O)OCc2c1cc1n(c2=O)Cc2cc3c(CN(C)C)c(O)ccc3nc2-1
2100

* * *

Tested on: HCT116
test-method-notes: SRB cytotoxicity assay, HCT116 (colon cancer)
Format: cell-based
cond: Homo sapiens, HCT-116; HCT116, incubation 72 h
observable: pIC50
In plain terms, pIC50 is the concentration in mol/L turned into minus its base-10 logarithm.

# query: pIC50 | item CC[C@@]1(O)C(=O)OCc2c1cc1n(c2=O)Cc2cc3c(CN(C)C)c(O)ccc3nc2-1 | system: HCT116
8.10

* * *

Tested on: myeloid CFCs
test-method-notes: Bone marrow suppression evaluation, colony assay, myeloid progenitors
Assay type: cell-based
cond: human bone marrow progenitors, methylcellulose colony assay, 14-16 days
observable: IC50 (nM)
Enter your answer as a number in nM; do not include the unit.

# IC50 lookup, item CC[C@@]1(O)C(=O)OCc2c1cc1n(c2=O)Cc2cc3c(CN(C)C)c(O)ccc3nc2-1
8.7

* * *

Tested on: Hep3B
test-method-notes: SRB cytotoxicity assay, Hep3B
Format: cell-based
cond: Homo sapiens, incubation 48 h
observable: IC50 (µM)
Enter your answer as a number in µM; do not include the unit.

# IC50 lookup, item CC[C@@]1(O)C(=O)OCc2c1cc1n(c2=O)Cc2cc3c(CN(C)C)c(O)ccc3nc2-1
64.6

* * *

Tested on: erythroid Colony Forming Cells (CFCs)
test-method-notes: Bone marrow suppression evaluation, colony assay, erythroid progenitors
Assay type: cell-based
cond: human bone marrow progenitors, methylcellulose colony assay, 14-16 days
observable: pIC50
In plain terms, pIC50 is the concentration in mol/L turned into minus its base-10 logarithm.

# pIC50 lookup, item CC[C@@]1(O)C(=O)OCc2c1cc1n(c2=O)Cc2cc3c(CN(C)C)c(O)ccc3nc2-1
7.93

* * *

Test system: DU145
test-method-notes: SRB cytotoxicity assay, DU145
Format: cell-based
cond: Homo sapiens, DU-145; DU145, incubation 24 h
observable: IC50

# IC50 lookup, item CC[C@@]1(O)C(=O)OCc2c1cc1n(c2=O)Cc2cc3c(CN(C)C)c(O)ccc3nc2-1
2.25 µM

* * *

test-method-notes: Aqueous solubility with mPEG2000-DSPE formulation
Type: physicochemical
cond: water with mPEG2000-DSPE formulation, aqueous with cosolvent or surfactant or cyclodextrin
observable: solubility (µg/mL)
Enter your answer as a number in µg/mL; do not include the unit.

# solubility lookup, item CC[C@@]1(OC(=O)C(C)(C)ON=C2c3cc([N+](=O)[O-])cc([N+](=O)[O-])c3-c3c2cc([N+](=O)[O-])cc3[N+](=O)[O-])C(=O)OCc2c1cc1n(c2=O)Cc2cc3c(CN(C)C)c(O)ccc3nc2-1.Cl [TLC1988 HCl]
10000

* * *

Test system: HepG2/2.2.15
test-method-notes: SRB cytotoxicity assay, HepG2/2.2.15
Type: cell-based
cond: Homo sapiens; HepG2/2.2.15, incubation 48 h
observable: IC50 (µM)
Enter your answer as a number in µM; do not include the unit.

# IC50 lookup, item CC[C@@]1(O)C(=O)OCc2c1cc1n(c2=O)Cc2cc3c(CN(C)C)c(O)ccc3nc2-1 [Topotecan]
63.1
